Just for reference, paper PMC6571994 is where these values come from.

test system: iNicSnFR1; conditions: read-out: apparent nicotine EC50
pEC50: −log10 of the molar value.
measured-attribute: pEC50

compound="CN1CCC[C@H]1c1cccnc1 [nicotine, (—)–Nicotine]" measured_number=3.60

----------
target: purified iNicSnFR3a; experiment: Isothermal titration calorimetry with purified iNicSnFR3a; details: PBS, 25°C
measured-attribute: Kd (µM)

compound="c1cnc2cc3c(cc2n1)[C@@H]1CNC[C@H]3C1 [varenicline]" tested_target="purified iNicSnFR3a" measured_number=3.5
compound="CN1CCC[C@H]1c1cccnc1 [nicotine, (—)–Nicotine]" tested_target="purified iNicSnFR3a" measured_number=10

----------
molecular target: iNicSnFR3a; assay: Stopped-flow kinetics of ligand binding to iNicSnFR3a; conditions: read-out: equilibrium-binding constant Kd = koff/kon; stopped-flow
measured-attribute: Kd (µM)

input_smiles=CN1CCC[C@H]1c1cccnc1 tested_target=iNicSnFR3a unit_of_measurement=µM measured_number=29
